# measured_target: Thrombin (Homo sapiens, UniProt P00734)
# assay_text: Related protease inhibition: Thrombin, fluorogenic substrate
# Type: biochemical
# condition_description: fluorogenic substrate at Km, 25° C.; H1-H3 = % activity at 40 μM; read-out: IC50 (human thrombin) nM
quantity_kind: activity at 40 µM

State activity at 40 µM (Thrombin (Homo sapiens, UniProt P00734)) of CN1CCc2ccc(N3CCc4c(C(=O)N[C@@H]5COC[C@H]5O)nn(-c5cccc(Cl)c5)c4C3=O)cc2C1=O [Example 1411] .
> 80%

State activity at 40 µM (Thrombin (Homo sapiens, UniProt P00734)) of CCNC(=O)c1nn(-c2cccc(Cl)c2)c2c1CCN(c1cccc(N3C(=O)C[C@@H]4C[C@@H]43)c1)C2=O (single isomer, unassigned) [Example 1408] .
20 to 80%

State activity at 40 µM (Thrombin (Homo sapiens, UniProt P00734)) of CCNC(=O)c1nn(-c2cccc(Cl)c2)c2c1CCN(c1cccc(N3CC4CC4C3)c1)C2=O (stereo not shown) [Example 1431] .
20 to 80%

State activity at 40 µM (Thrombin (Homo sapiens, UniProt P00734)) of COCc1nn(-c2cc(Cl)cc(CN)c2)c2c1CCN(c1ccc3c(c1)C(=O)N(C)CC3)C2=O [Example 2041] .
20 to 80%

State activity at 40 µM (Thrombin (Homo sapiens, UniProt P00734)) of CN1CCc2ccc(N3CCc4c(C(=O)N[C@H]5COC[C@H]5O)nn(-c5cccc(Cl)c5)c4C3=O)cc2C1=O [Example 1416] .
20 to 80%

State activity at 40 µM (Thrombin (Homo sapiens, UniProt P00734)) of CCNC(=O)c1nn(-c2cccc(Cl)c2CO)c2c1CCN(c1ccc3c(c1)C(=O)N(C)CC3)C2=O [Example 2052] .
> 80%

State activity at 40 µM (Thrombin (Homo sapiens, UniProt P00734)) of CCNC(=O)c1nn(-c2cccc(Cl)c2)c2c1CCN(c1cccc(N3CCN(C(C)C)C3=O)c1)C2=O [Example 1409] .
> 80%

FYI, the data here is from patent US20260132132A1.
